Measured values drawn from patent US20020035061A1 for this set.

# Test system: bacterial isolates
# experiment_description: microbe, parasite or virus in culture
# Format: cell-based
# experimental_context: peptide + Piperacillin; P. aeruginosa 23
measured_property: FIC

ILKKWVWWPWRRK [MBI 11F3CN]; 0.51
KKWWRRALQGLKTAGPAIQSVLNK [MBI 21A2]; 0.19
ILKKWPWWPWRR [MBI 11G7CN]; 0.50
ILRWVWWVWRRK [MBI 11F4CN]; 0.31
KWKSFIKKLTSAAKKVVTTAKPLISS [MBI 26]; 0.27
ILKKWPWWPWRRK [MBI 11CN]; 0.53
ILRRVJPWWPWRRR [MBI 11B9CN]; 0.13
ILRWPWWPWRRK [MBI 11B7CN]; 0.56
ILKKWPWWPWRRK [MBI 11E3CN]; 0.27
